target: SMARCA2 (Homo sapiens); construct: endogenous in cells; test: SMARCA2 Cellular Degradation Assay (Western blot analysis on Jess platform); assay type: cell-based; details: ratio DC50 SMARCA4 / DC50 SMARCA2
assayEndpoint: Fold Selectivity SMARCA4/2
Just the number.

O=C1CC[C@H](c2ccc(N3CCC(CN4CCC5(CC4)CN(C(=O)C4(c6ccccc6)CCN(c6cnnc(-c7ccccc7O)c6)CC4)C5)CC3)cc2)C(=O)N1    10
N#CC1(CN2CCN(c3ccc([C@@H]4CCC(=O)NC4=O)cc3)CC2)CC12CCN(C(=O)C1(c3ccccc3)CCN(c3cnnc(-c4ccccc4O)c3)CC1)CC2 (mixture of isomers)    35
CC1(NC(=O)C2(c3ccccc3)CCN(c3cnnc(-c4ccccc4O)c3)CC2)CCN(CC2CCN(c3ccc(N[C@@H]4CCC(=O)NC4=O)cn3)CC2)CC1 (racemic)    208
COC1(C(=O)N(C)C2CCN(CCC3CCN(c4ccc(C5CCC(=O)NC5=O)cc4)CC3)CC2)CCN(c2cnnc(-c3ccccc3O)c2)CC1 (racemic)    727
O=C1CC[C@H](c2ccc(N3CCC(CCN4CC5CCC(C4)C5C(=O)NCC4(c5ccccc5)CCN(c5cnnc(-c6ccccc6O)c5)CC4)CC3)cc2)C(=O)N1 (mixture of isomers)    10

What measured Fold Selectivity SMARCA4/2 goes with CN(C(=O)C1(OC2CCCCC2)CCN(c2cnnc(-c3ccccc3O)c2)CC1)C1CCN(C(=O)CN2CCC(c3ccc([C@@H]4CCC(=O)NC4=O)cc3)CC2)CC1 (racemic) ?
9

// lookup Fold Selectivity SMARCA4/2 for O=C1CC[C@@H](c2ccc(OCC3CCN(CC4CCN(C(=O)C5(c6ccccc6)CCN(c6cnnc(-c7ccccc7O)c6)CC5)CC4)CC3)cc2)C(=O)N1
124.30

* * *

target: SMARCA4 (Homo sapiens, UniProt P51532); construct: endogenous in cells; assay: Cellular degradation assay, SMARCA4 (Table 1); format: cell-based
Sequence (P51532 whole entry, species assumed): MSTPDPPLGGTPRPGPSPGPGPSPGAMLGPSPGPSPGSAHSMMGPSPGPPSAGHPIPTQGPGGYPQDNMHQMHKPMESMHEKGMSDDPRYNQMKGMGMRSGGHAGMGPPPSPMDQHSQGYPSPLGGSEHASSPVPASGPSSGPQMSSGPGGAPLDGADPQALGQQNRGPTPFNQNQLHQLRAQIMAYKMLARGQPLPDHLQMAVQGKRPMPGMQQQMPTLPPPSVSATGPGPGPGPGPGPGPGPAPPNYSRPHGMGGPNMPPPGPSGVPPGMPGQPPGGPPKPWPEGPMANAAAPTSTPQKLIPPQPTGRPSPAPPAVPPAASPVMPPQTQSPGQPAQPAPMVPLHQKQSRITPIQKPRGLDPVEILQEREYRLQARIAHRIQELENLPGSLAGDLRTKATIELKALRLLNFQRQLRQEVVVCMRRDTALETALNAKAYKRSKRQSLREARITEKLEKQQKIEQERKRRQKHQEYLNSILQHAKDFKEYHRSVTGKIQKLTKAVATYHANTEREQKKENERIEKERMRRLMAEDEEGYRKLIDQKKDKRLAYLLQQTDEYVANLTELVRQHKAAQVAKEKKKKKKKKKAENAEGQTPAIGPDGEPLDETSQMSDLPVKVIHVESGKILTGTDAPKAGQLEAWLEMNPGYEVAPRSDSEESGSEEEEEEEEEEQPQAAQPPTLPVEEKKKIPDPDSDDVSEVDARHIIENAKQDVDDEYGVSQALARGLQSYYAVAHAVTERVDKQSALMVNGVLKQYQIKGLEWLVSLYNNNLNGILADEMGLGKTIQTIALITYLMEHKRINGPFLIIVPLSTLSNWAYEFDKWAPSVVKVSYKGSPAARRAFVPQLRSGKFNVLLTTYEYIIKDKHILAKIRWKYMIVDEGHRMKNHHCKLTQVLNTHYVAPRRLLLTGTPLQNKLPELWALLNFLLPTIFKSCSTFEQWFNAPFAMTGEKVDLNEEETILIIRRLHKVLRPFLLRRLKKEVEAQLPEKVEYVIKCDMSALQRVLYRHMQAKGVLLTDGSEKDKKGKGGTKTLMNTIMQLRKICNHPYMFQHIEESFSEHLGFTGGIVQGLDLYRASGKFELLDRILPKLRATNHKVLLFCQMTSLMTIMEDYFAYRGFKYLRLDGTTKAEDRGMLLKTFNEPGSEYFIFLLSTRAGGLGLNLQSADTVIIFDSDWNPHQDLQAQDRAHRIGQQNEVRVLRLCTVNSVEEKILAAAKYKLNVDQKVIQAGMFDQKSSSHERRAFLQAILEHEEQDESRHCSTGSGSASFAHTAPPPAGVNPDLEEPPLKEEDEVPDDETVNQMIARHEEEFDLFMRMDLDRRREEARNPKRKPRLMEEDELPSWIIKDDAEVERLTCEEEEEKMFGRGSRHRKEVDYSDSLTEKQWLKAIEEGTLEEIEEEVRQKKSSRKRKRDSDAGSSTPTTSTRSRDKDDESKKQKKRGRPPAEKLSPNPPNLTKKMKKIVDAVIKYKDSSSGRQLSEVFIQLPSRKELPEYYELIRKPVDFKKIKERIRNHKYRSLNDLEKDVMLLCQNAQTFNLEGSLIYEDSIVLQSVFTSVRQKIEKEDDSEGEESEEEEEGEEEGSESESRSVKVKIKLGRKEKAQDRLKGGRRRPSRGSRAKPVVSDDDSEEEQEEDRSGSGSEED
Labelling field: enter Satisfied if recorded DC50 is less than 20 nM. Enter Not satisfied if it equals or exceeds that cut-off.

Take the molecule C[C@@H](C1CCN(c2ccc([C@H]3CCC(=O)NC3=O)cn2)CC1)N1CC2(CN(C(=O)C3(c4ccccc4)CCN(c4cnnc(-c5ccccc5O)c4)CC3)C2)C1 (racemic) and say whether its DC50 is less than 20 nM.
Not satisfied

Is DC50 of CN(CC1(c2ccccc2)CCN(c2cnnc(-c3ccccc3O)c2)CC1)C1CCN(C(=O)CN2CCC(c3ccc(C4CCC(=O)NC4=O)cc3)CC2)CC1 (racemic) strictly below 20 nM?
Not satisfied

Hello, I'm reviewing records and need to know if DC50 of O=C1CC[C@@H](c2ccc(O[C@H]3CC[C@H](CN4CC5(C4)CN(C(=O)C4(c6ccccc6)CCN(c6cnnc(-c7ccccc7O)c6)CC4)C5)CC3)cc2)C(=O)N1 (racemic) is below 20 nM. Could you check?
Not satisfied

Lab log: compare recorded DC50 with 20 nM; is it strictly lower for N#CC1(CN2CCN(c3ccc([C@@H]4CCC(=O)NC4=O)cc3)CC2)CC12CCN(C(=O)C1(c3ccccc3)CCN(c3cnnc(-c4ccccc4O)c3)CC1)CC2 (mixture of isomers) ?
Not satisfied

Given the entry CC(C)c1cc(C2(C(=O)N(C)C3CCN(CC4CCN(c5ccc(C6CCC(=O)NC6=O)cc5)CC4)CC3)CCN(c3cnnc(-c4ccccc4O)c3)CC2)no1 (racemic) , would its reported DC50 be below 20 nM?
Not satisfied

Check if DC50 falls below 20 nM for O=C1CC[C@H](c2ccc(N3CCC(CCN4CCC(Oc5ccccc5)(C(=O)NCC5(c6ccccc6)CCN(c6cnnc(-c7ccccc7O)c6)CC5)CC4)CC3)cc2)C(=O)N1 (racemic) .
Not satisfied

For this molecule, is DC50 lower than 20 nM? O=C1CCC(c2ccc(N3CCC(CN4CC5(C4)CN(CC4(c6ccccc6)CCN(c6cnnc(-c7ccccc7O)c6)CC4)C5)CC3)cc2)C(=O)N1 (racemic)
Not satisfied

Say whether its DC50 is strictly beneath 20 nM. Entry: CN(C(=O)C1(c2ccccc2)CCN(c2cnnc(-c3ccccc3O)c2)CC1)C1CCN(CCC2CCN(c3cccc4c3n(C)c(=O)n4C3CCC(=O)NC3=O)CC2)CC1 (racemic)
Satisfied

Does the reported DC50 of the following molecule sit strictly below 20 nM? Cn1ccc(C2(C(=O)N3CC4(CN(CC5CCN(c6ccc(C7CCC(=O)NC7=O)cc6)CC5)C4)C3)CCN(c3cnnc(-c4ccccc4O)c3)CC2)n1 (racemic)
Not satisfied

Decide: DC50 of O=C1CC[C@H](c2ccc(N3CC[C@]4(C3)C[C@@H](N3CC5(CCN(C(=O)C6(c7ccccc7)CCN(c7cnnc(-c8ccccc8O)c7)CC6)CC5)C3)C4)cc2)C(=O)N1 (racemic) strictly below 20 nM?
Not satisfied

Is DC50 strictly under 20 nM for the entry O=C1CCC(c2c(F)cc(N3CCC(CN4CCC5(CC4)CN(C(=O)C4(Oc6ccccc6)CCN(c6cnnc(-c7ccccc7O)c6)CC4)C5)CC3)cc2F)C(=O)N1 (racemic) ?
Satisfied

I wonder whether O=C1CC[C@H](c2ccc(C3CCN(CC(=O)N4CCC(S(=O)(=O)NCC5(c6ccccc6)CCN(c6cnnc(-c7ccccc7O)c6)CC5)CC4)CC3)cc2)C(=O)N1 (racemic) has DC50 below 20 nM. Can you tell?
Not satisfied

* * *

biological target: SMARCA2 (Homo sapiens, UniProt P51531); construct: endogenous in cells; assay: SMARCA2 Cellular Degradation Assay (Western blot analysis on Jess platform); assay type: cell-based; conditions: ratio DC50 SMARCA4 / DC50 SMARCA2
Sequence (P51531 whole entry, species assumed): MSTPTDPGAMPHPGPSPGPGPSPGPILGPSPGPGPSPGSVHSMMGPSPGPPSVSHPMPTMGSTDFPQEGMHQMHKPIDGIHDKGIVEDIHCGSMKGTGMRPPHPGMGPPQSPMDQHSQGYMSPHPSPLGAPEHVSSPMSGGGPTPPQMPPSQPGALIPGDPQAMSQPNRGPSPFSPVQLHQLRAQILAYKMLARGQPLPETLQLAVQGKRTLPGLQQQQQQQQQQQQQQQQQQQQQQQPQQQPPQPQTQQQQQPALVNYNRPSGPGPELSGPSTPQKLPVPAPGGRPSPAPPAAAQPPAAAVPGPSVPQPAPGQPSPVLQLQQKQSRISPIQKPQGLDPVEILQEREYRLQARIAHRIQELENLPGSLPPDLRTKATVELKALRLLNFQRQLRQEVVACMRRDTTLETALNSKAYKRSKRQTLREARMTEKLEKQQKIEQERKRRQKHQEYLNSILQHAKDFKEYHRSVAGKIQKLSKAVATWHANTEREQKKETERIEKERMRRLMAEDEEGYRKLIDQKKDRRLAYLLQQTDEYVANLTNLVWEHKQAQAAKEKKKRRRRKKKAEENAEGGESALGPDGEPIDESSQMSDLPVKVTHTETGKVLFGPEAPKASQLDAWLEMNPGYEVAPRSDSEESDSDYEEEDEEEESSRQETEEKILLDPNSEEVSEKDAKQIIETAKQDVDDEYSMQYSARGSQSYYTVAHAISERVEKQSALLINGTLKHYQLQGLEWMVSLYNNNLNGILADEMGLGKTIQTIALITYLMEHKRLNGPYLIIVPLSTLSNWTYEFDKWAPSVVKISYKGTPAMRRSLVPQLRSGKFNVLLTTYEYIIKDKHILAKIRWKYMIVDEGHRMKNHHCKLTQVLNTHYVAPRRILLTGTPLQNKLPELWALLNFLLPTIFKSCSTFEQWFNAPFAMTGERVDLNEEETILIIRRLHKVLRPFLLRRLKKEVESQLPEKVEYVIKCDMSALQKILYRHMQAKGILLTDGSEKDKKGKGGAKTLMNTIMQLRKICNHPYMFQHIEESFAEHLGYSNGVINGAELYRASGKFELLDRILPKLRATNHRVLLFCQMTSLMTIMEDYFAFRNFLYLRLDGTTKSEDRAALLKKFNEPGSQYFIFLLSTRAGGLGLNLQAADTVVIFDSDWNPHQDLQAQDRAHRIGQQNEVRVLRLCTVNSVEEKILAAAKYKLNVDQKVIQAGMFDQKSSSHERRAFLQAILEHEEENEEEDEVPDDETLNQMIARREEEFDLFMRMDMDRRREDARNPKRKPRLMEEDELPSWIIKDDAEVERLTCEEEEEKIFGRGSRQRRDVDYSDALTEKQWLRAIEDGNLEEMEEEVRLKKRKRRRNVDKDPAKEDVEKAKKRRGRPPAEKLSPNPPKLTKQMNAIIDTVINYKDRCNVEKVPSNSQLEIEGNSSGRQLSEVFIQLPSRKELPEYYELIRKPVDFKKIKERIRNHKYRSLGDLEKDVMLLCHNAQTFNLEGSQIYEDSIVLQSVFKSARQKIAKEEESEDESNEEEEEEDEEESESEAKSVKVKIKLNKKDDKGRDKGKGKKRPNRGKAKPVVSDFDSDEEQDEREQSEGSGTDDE
Reported Fold Selectivity SMARCA4/2 values for the following compounds.
Just the number, please.

Study these solved cases before continuing.
O=C1CCC(c2ccc(OCC3CCN(CC4CCN(C(=O)C5(c6ccccc6)CCN(c6cnnc(-c7ccccc7O)c6)CC5)CC4)CC3)cc2)C(=O)N1 (racemic)    472.68
O=C1CC[C@H](c2ccc(N3CCC(CCN4CCC(Oc5ccccc5)(C(=O)NCC5(c6ccccc6)CCN(c6cnnc(-c7ccccc7O)c6)CC5)CC4)CC3)cc2)C(=O)N1 (racemic)    8
O=C1CC[C@H](c2ccc(C3CCN(CC(=O)N4CCC(S(=O)(=O)NCC5(c6ccccc6)CCN(c6cnnc(-c7ccccc7O)c6)CC5)CC4)CC3)cc2)C(=O)N1 (racemic)    6
COC1(C(=O)N(C)C2CCN(CCC3CCN(c4cccc5c4n(C)c(=O)n5C4CCC(=O)NC4=O)CC3)CC2)CCN(c2cnnc(-c3ccccc3O)c2)CC1 (racemic)    34
Cn1ccc(OC2(C(=O)N3CC4(CN(CCC5CCN(c6ccc(C7CCC(=O)NC7=O)c(F)c6)CC5)C4)C3)CCN(c3cnnc(-c4ccccc4O)c3)CC2)n1 (racemic)    947

Looking for the measured Fold Selectivity SMARCA4/2 of O=C1CC[C@H](c2ccc(N3CCC(CCN4CCC(N(C(=O)C5(c6ccccc6)CCN(c6cnnc(-c7ccccc7O)c6)CC5)C5CC5)CC4)CC3)cc2)C(=O)N1 , can you help?
32

Return reported Fold Selectivity SMARCA4/2; argument: O=C1CCC(c2ccc(N3CCOC4(CCN(CC(=O)N5CCC6(CC5)CN(C(=O)C5(c7ccccc7)CCN(c7cnnc(-c8ccccc8O)c7)CC5)C6)CC4)C3)cc2)C(=O)N1 (racemic)
147

Param item = Cn1c(=O)n(C2CCC(=O)NC2=O)c2ccc(N3CCC(CN4CCC(NC(=O)C5(c6ccccc6)CCN(c6cnnc(-c7ccccc7O)c6)CC5)CC4)CC3)cc21 (racemic) ; retrieve measured Fold Selectivity SMARCA4/2.
3

Name the reported Fold Selectivity SMARCA4/2 value associated with the compound CN(C(=O)C1(c2ccnn2C)CCN(c2cnnc(-c3ccccc3O)c2)CC1)C1CCN(CC2CCN(c3ccc(C4CCC(=O)NC4=O)cc3)CC2)CC1 (racemic)
2212

* * *

The compounds listed here are annotated with their DC50.
molecular target: SMARCA4 (Homo sapiens, UniProt P51532); construct: endogenous in cells; experiment: Cellular degradation assay, SMARCA4 (Table 1); assay type: cell-based
Use nM as the unit, but write only the number.

Completed entries (count: 5):
O=C1CCC(c2c(F)cc(N3CCC(CN4CCC5(CC4)CN(C(=O)C4(c6ccccc6)CCN(c6cnnc(-c7ccccc7O)c6)CC4)C5)CC3)cc2F)C(=O)N1 (racemic) [Example 193]    13.2
COCCN(CC1(c2ccccc2)CCN(c2cnnc(-c3ccccc3O)c2)CC1)C(=O)C1CCN(CCC2CCN(c3ccc([C@@H]4CCC(=O)NC4=O)cc3)CC2)CC1 (racemic) [Example 145]    9.67
CN(C(=O)C1(c2ccccc2)CCN(c2cnnc(-c3ccccc3O)c2)CC1)C1CCN(CCC2CCN(c3ccc(C4CCC(=O)NC4=O)c(F)c3)CC2)CC1 (racemic) [Example 151]    157
Cc1ccccc1OC1(C(=O)N(C)C2CCN(C(=O)CN3CCC(c4ccc([C@@H]5CCC(=O)NC5=O)cc4)CC3)CC2)CCN(c2cnnc(-c3ccccc3O)c2)CC1 (racemic) [Example 116]    57.4
O=C1CCC(c2ccc(N3CCC(CN4CC5(C4)CN(C(=O)C4(c6cccc(Cl)c6)CCN(c6cnnc(-c7ccccc7O)c6)CC4)C5)CC3)cc2)C(=O)N1 (racemic) [Example 27]    132

Any idea what its DC50 is? The compound is O=C1CC[C@H](c2ccc(N3CCC(CN4CCC5(CC4)CN(C(=O)C4(c6ccccc6)CCN(c6cnnc(-c7ccccc7O)c6)CC4)C5)CC3)cc2)C(=O)N1 [Example 194]
31.3
